Test system: rice
test: Low temperature assay on rice seedlings
Type: in vivo
particulars: 1 mg/l, 5 °C, 3 days
Each record here notes measured Weight of root.

{"molecule": "CC[C@@H](C(C)C)[C@@H](O)[C@H](O)[C@@H](C)[C@H]1CCC2C3COC(=O)C4C[C@H](O)[C@H](O)C[C@]4(C)C3CC[C@@]21C (stereo partly drawn)", "Weight of root / g": 2.9}
{"molecule": "CC(C)C[C@@H](O)[C@H](O)[C@@H](C)[C@H]1CCC2C3CC(=O)C4C[C@H](O)[C@H](O)C[C@]4(C)C3CC[C@@]21C (stereo partly drawn)", "Weight of root / g": 2.9}
{"molecule": "C=C(C(C)C)[C@@H](O)[C@H](O)[C@@H](C)[C@H]1CCC2C3COC(=O)C4C[C@H](O)[C@H](O)C[C@]4(C)C3CC[C@@]21C (stereo partly drawn)", "Weight of root / g": 2.9}
